# Test system: CCRIS mutagenicity, Ames/micronucleus/aberration tests
# Measurement Notes: CCRIS mutagenicity studies
# Run Conditions: Test System: AMES SALMONELLA TYPHIMURIUM; Strain/Indicator: TA100; Metabolic Activation: RAT, LIVER, S-9, AROCLOR 1254; Method: PREINCUBATION
The source made the active and inactive calls. The rule behind the calls is not given here.
Pick one: class 1 (active), class 0 (inactive)

Look over these answered cases.
{"Compound": "CCC(=O)OCc1cccc([N+](=O)[O-])c1", "Label Class": "class 0"}
{"Compound": "C1CNCCN1", "Label Class": "class 0"}
{"Compound": "Cc1cc(/C=C/c2ccc3cc(N(C)C)ccc3[n+]2C)c(C)n1-c1ccccc1", "Label Class": "class 1"}

Recorded call for "CC/C=C/C=C/C=C/C=C/C=C/OC[C@@H](O)CO" ?
class 1

Which outcome did this test record for the compound "CC/C=C/C=O" ?
class 1

Fill in: this test's call for c1cc(OCC2CO2)cc(OCC2CO2)c1 (configuration not stated) is ___
class 1

Assay result, entry "COc1ccccc1/C=C/C=O" — outcome?
class 0

Called result for "CC(=O)OCc1ccc([N+](=O)[O-])cc1"
class 1
